The measurements presented in this section are drawn from patent US20180305450A1.

Exercise: for every item that follows, state its recorded Kd.
- system_tested: T1, recombinant biotinylated rat PAR2 extracellular residues 1-75, N-terminal AviTag, C-terminal Flag and poly … (rat, UniProt Q63645 26-75, not fully specified; biotin on the AviTag (enzymatic biotinylation))
- T1 construct: range 1-75; not shown: N-terminal AviTag (Avidity LLC); C-terminal Flag and poly Histidine tags
- T1 chain (looked up): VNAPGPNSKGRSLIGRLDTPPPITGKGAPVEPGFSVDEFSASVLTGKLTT
- assay_protocol: Biacore SPR 25 C, pH 6.0
Write the figure, then the unit, nothing else.

Recorded result, PaB670136 Fab (Fab, V domains shown, Fab; also called ZZ1RUF-A01) VH: EVQLLESGGGLVQPGGSLRLSCAASGFTFSSYAMNWVRQAPGKGLEWVSTISYHGHHISYADSHHHRFTISRDNSKNTLYLQMNSLRAEDTAVYYCARIHHDPMDHWGQGTLVTVSS VL: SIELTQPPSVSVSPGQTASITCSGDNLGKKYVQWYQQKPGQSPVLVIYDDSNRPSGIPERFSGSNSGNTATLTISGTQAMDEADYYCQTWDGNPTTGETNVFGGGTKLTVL , Kd: 37.5 nM

Recorded result, PaB670048 Fab (Fab, V domains shown, Fab; also called ZZ1KX4-E11) VH: EVQLLESGGGLVQPGGSLRLSCAASGFTFSSYAMNWVRQAPGKGLEWVSTISYSGSLISYADSVKGRFTISRDNSKNTLYLQMNSLRAEDTAVYYCARIHHDPMDHWGQGTLVTVSS VL: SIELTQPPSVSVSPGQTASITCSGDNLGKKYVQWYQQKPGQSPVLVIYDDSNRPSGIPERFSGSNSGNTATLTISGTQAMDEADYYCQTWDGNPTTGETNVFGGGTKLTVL , Kd: 5.12 nM

Recorded result, PaB670084 Fab (Fab, V domains shown, Fab; also called ZZ1PXA-A05) VH: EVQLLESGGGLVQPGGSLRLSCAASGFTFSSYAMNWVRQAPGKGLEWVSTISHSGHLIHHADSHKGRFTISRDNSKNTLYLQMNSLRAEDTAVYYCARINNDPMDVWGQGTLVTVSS VL: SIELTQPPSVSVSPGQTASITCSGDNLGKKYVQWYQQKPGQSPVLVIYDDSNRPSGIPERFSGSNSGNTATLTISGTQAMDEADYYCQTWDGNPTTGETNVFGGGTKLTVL , Kd: 10.8 nM

Recorded result, PaB670076 Fab (Fab, V domains shown, Fab; also called ZZ1NHH-F09) VH: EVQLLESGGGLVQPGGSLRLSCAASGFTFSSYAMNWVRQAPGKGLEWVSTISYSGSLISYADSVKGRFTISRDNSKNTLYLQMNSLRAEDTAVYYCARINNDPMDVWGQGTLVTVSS VL: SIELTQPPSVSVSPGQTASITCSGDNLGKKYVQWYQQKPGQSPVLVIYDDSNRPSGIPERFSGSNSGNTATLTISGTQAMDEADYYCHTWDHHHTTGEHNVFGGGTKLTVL , Kd: 30.7 nM
